# SYSTEM: T1, human GREM1 (hGREM1-His; SEQ ID NO: 595) (human, UniProt O60565 25-184)
# T1 construct: also called biotin-hGREM1-His; recombinant human GREM1 protein
# T1 sequence: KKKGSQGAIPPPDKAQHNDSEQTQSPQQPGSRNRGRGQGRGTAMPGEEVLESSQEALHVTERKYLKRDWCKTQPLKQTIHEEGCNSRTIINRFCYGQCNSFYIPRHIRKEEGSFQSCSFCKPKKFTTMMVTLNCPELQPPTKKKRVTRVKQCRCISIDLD
# ASSAY_NOTES: competition ELISA, biotin-hGREM1-His (100 pM) binding to coated hBMP4
QUANTITY_MEASURED: % blocked at maximum Ab tested (20 nM)

binder="H4H6233P (antibody, human IgG4, V domains shown, H4H prefix = human IgG4 Fc) VH: QVQLVESGGGVVQPGRSLRLSCAASGFTFSSYGMHWVRQAPGKGLEWVAVIWYDGSNYYYAASVKGRFTISRDNSENTLYLQMNRLRAEDTAVYYCAREGTGSTEDYFDYWGQGTLVTVSS VL: EIVLTQSPATLSLSPGERATLSCRASQSVSSFLAWYQQKPGQAPRLLIYDASNRATGIPVRFSGSGSGTDFTLTISSLEPEDFAVYYCQQRSNWPPYTFGQGTKLEIK" quantity_measured="% blocked at maximum Ab tested (20 nM)" observed=66%
binder="H4H6270P (antibody, human IgG4, V domains shown, H4H prefix = human IgG4 Fc) VH: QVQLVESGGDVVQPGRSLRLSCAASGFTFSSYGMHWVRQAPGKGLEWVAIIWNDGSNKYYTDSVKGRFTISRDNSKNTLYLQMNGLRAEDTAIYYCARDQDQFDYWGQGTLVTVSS VL: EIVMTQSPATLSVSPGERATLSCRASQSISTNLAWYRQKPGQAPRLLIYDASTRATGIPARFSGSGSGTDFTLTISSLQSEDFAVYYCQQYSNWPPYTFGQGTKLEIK" quantity_measured="% blocked at maximum Ab tested (20 nM)" observed=62%
binder="H4H6252P (antibody, human IgG4, V domains shown, H4H prefix = human IgG4 Fc; also called H4H6252S) VH: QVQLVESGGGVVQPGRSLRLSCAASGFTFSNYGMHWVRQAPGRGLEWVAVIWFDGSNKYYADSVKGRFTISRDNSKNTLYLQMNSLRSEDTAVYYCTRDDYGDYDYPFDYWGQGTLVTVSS VL: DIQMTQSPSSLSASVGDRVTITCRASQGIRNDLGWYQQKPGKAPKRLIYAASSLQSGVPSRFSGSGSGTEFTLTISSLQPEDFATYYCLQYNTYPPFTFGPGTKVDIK" quantity_measured="% blocked at maximum Ab tested (20 nM)" observed=53%
